experiment: AUC (0-t) in female Beagle dog at 1 mg/kg,iv measured upto 24 hrs; format: ADME, organism-based, Canis lupus familiaris; set-up: dose 1 mg/kg, time < 24 hrs, route iv; conditions: in vivo
propertyLabel: AUC(0-t) at 24 h (ng·h/mL)
All answers are understood in ng·h/mL, so give the number only.

Task: Look up AUC(0-t) at 24 h: CC(=O)O[C@@]12CO[C@@H]1C[C@H](O)[C@@]1(C)C(=O)[C@H](O)C3=C(C)[C@@H](OC(=O)[C@H](OC(=O)CCC(=O)NCCCC[C@H](NC(=O)CC[C@@H](NC(=O)[C@H](C)NC(=O)/C=C/c4ccc(F)cc4Cl)C(N)=O)C(=O)O)[C@@H](NC(=O)OC(C)(C)C)c4ccccc4)C[C@@](O)([C@@H](OC(=O)c4ccccc4)[C@H]21)C3(C)C
Output: 1590

Data provenance is ChEMBL document CHEMBL5252546.
